Biological target: Eosinophil peroxidase (EPX) (UniProt P11678;P11678 P11678:140-250,P11678:251-715)
Sequence (P11678 140-250, chain 1 of 2): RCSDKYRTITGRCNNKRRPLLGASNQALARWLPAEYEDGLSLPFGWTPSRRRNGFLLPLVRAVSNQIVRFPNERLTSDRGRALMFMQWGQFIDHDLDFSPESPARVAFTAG
Sequence (P11678 251-715, chain 2 of 2): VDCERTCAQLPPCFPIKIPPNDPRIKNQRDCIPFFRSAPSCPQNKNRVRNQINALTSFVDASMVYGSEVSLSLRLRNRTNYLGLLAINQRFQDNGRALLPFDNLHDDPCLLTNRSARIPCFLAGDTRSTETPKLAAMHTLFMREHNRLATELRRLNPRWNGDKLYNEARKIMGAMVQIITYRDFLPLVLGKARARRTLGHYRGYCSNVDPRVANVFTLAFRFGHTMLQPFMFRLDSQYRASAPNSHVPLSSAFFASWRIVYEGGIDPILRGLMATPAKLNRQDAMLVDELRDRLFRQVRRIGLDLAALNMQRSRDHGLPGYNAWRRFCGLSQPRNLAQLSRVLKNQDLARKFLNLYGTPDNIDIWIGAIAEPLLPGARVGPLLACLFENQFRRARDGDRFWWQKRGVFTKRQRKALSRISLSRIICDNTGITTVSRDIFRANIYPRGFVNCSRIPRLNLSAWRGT
Experiment: EMSA; value only in figure; weaker than EAP1-05; 1x SB pH 9
Conditions: tags: Cedarlane #342-60-0.1; untagged commercial protein; label: fluorescent (FAM)
Result Type: binding result

Please look at this binder and report its binding result: EAP2-40 (ssDNA) DNA: ATGCCATCCTACCAACCAGGGGGCGCGGGAGGGGGCCTGACGTCGAGGGGGTTGGGGAGCTCTGAACTGG
binds

Please supply the value of reported binding result for the item EAP2-18 (ssDNA) DNA: ATGCCATCCTACCAACATGGGGATATCCGGCGGGGGCATCAGGGGGGAGTGCGGGTGAGCTCTGAACTGG
binds

Please look at this binder and report its binding result: EAP2-10 (ssDNA) DNA: ATGCCATCCTACCAACAGGGAGGGGGCGGTTAGGGAATGGTGGTCCGGGCGGGGTAGAGCTCTGAACTGG
binds

Supply binding result value. Item: EAP2-01 (ssDNA) DNA: ATGCCATCCTACCAACCGCGGGAGGAGACTGGTGTAGGGGGCATGGGATGGCCTGGGAGCTCTGAACTGG
binds

Origin of values: patent US20230295635
